# System: OVCAR-5
# procedure.summary: NCI one-dose SRB anti-proliferative screen
# Assay type: cell-based
# applied.conditions: Homo sapiens; OVCAR-5, Ovarian Cancer; NCI one dose; read-out: Cell growth inhibition %
# inhibition at 10 µM annotations
Reply numerically in %, unit not repeated.

Below, 6 compounds whose answers are already recorded.
>>> measured_number("COc1cc(/C=C/C(=O)c2ccc(NC(=O)CSc3nnc(-c4ccc5[nH]c(-c6ccccc6)nc5c4)o3)cc2)cc(OC)c1OC [Compound 7e]")
0
>>> measured_number("COc1ccc(/C=C/C(=O)c2ccc(NC(=O)CSc3nnc(-c4ccc5[nH]c(-c6ccccc6)nc5c4)o3)cc2)cc1 [Compound 7c]")
0
>>> measured_number("COc1ccc(-c2nc3cc(-c4nnc(SCC(=O)Nc5ccc(C(=O)/C=C/c6ccc(OC)c(OC)c6)cc5)o4)ccc3[nH]2)cc1 [Compound 7n]")
0
>>> measured_number("COc1ccc(-c2nc3cc(-c4nnc(SCC(=O)Nc5ccc(C(=O)/C=C/c6cc(OC)c(OC)c(OC)c6)cc5)o4)ccc3[nH]2)cc1 [Compound 7o]")
0
>>> measured_number("COc1ccc(/C=C/C(=O)c2ccc(NC(=O)CSc3nnc(-c4ccc5[nH]c(-c6ccccc6)nc5c4)o3)cc2)cc1OC [Compound 7d]")
0
>>> measured_number("COc1ccc(-c2nc3cc(-c4nnc(SCC(=O)Nc5ccc(C(=O)/C=C/c6ccccc6)cc5)o4)ccc3[nH]2)cc1 [Compound 7k]")
0

Here's the next entry for you.
## Input Please give the measured inhibition at 10 µM for this compound: O=C(CSc1nnc(-c2ccc3[nH]c(-c4ccccc4)nc3c2)o1)Nc1ccc(C(=O)/C=C/c2ccccc2)cc1 [Compound 7a]
## Output 0

* * *

# Test system: NCI/ADR-RES
# procedure.summary: NCI one-dose SRB anti-proliferative screen
# Format: cell-based
# applied.conditions: Homo sapiens; NCI/ADR-RES, Ovarian Cancer; NCI one dose; read-out: Cell growth inhibition %
measurement.label: inhibition at 10 µM (%)
Your answer is read as %, so omit the unit and give the number.

Some solved entries appear below for comparison.
>>> measured_number("COc1ccc(-c2nc3cc(-c4nnc(SCC(=O)Nc5ccc(C(=O)/C=C/c6ccc(OC)c(OC)c6)cc5)o4)ccc3[nH]2)cc1")
6.05
>>> measured_number("COc1cc(/C=C/C(=O)c2ccc(NC(=O)CSc3nnc(-c4ccc5[nH]c(-c6ccccc6)nc5c4)o3)cc2)cc(OC)c1OC")
0
>>> measured_number("COc1ccc(/C=C/C(=O)c2ccc(NC(=O)CSc3nnc(-c4ccc5[nH]c(-c6ccccc6)nc5c4)o3)cc2)cc1")
0

## Input // lookup inhibition at 10 µM for COc1ccc(/C=C/C(=O)c2ccc(NC(=O)CSc3nnc(-c4ccc5[nH]c(-c6ccc(OC)cc6)nc5c4)o3)cc2)cc1
## Output 0

## Input Fill in: inhibition at 10 µM of O=C(CSc1nnc(-c2ccc3[nH]c(-c4ccccc4)nc3c2)o1)Nc1ccc(C(=O)/C=C/c2ccccc2)cc1 is ___
## Output 0

## Input Item under review: O=C(CSc1nnc(-c2ccc3[nH]c(-c4ccccc4)nc3c2)o1)Nc1ccc(C(=O)/C=C/c2ccc(Cl)cc2)cc1 . Reported inhibition at 10 µM?
## Output 0

## Input Return reported inhibition at 10 µM; argument: COc1ccc(-c2nc3cc(-c4nnc(SCC(=O)Nc5ccc(C(=O)/C=C/c6ccccc6)cc5)o4)ccc3[nH]2)cc1
## Output 10.3

Sourced from paper PMC10504751
